Test system: CCRIS mutagenicity, Ames/micronucleus/aberration tests
Assay: CCRIS mutagenicity studies
Conditions: Test System: AMES SALMONELLA TYPHIMURIUM; Strain/Indicator: TA102; Metabolic Activation: RAT, LIVER, S-9, AROCLOR 1254; Method: PREINCUBATION
Calls of active or inactive are those of the source. How the calls were made is not given here.
Outcome codes: t = active, f = inactive

>>> assigned_class("CC(=O)C(C)O (configuration not stated)")
"f"
>>> assigned_class("C[C-](C)[N+](=O)[O-]")
"t"
>>> assigned_class("O.O.O=C([O-])[C@H](O)[C@@H](O)[C@H](O)[C@H](O)CO.O=C([O-])[C@H](O)[C@@H](O)[C@H](O)[C@H](O)CO.[Fe+2]")
"f"
>>> assigned_class("Cc1[nH]ccc2c1[nH]c1cc(=O)ccc12")
"f"
>>> assigned_class("O=C1O[C@H]([C@H](O)CO)C(O)=C1O")
"f"
>>> assigned_class("CC1C=CC(=O)O1 (configuration not stated)")
"f"
>>> assigned_class("O=C1NCCN1c1ncc([N+](=O)[O-])s1")
"t"
>>> assigned_class("C=CCN=C=S")
"f"
>>> assigned_class("Cc1ccsc1")
"f"
>>> assigned_class("O=C[C@H](O)[C@@H](O)[C@H](O)CO")
"f"
>>> assigned_class("CCOC(=O)CC(C)C")
"f"
>>> assigned_class("CCN(N=O)C(N)=O")
"t"
>>> assigned_class("CCc1cn([C@H]2C[C@H](O)[C@@H](CO)O2)c(=O)[nH]c1=O")
"f"
>>> assigned_class("N[C@@H](CC(=O)O)C(=O)O")
"f"
>>> assigned_class("CCCCOC(=O)CCC")
"f"
>>> assigned_class("Cc1cncc(C)n1")
"f"
>>> assigned_class("COc1cc(C(C)=O)ccc1O")
"f"
>>> assigned_class("CC(N)[13C](=O)O (configuration not stated)")
"f"
>>> assigned_class("NCC(=O)O")
"f"
>>> assigned_class("O=S(O)O")
"f"
>>> assigned_class("COc1ccccc1O")
"f"
>>> assigned_class("Nc1nc2ncc(CNc3ccc(C(=O)N[C@@H](CCC(=O)O)C(=O)O)cc3)nc2c(=O)[nH]1")
"f"

* * *

Tested on: CCRIS mutagenicity, Ames/micronucleus/aberration tests
Assay: CCRIS mutagenicity studies
Settings: Test System: AMES SALMONELLA TYPHIMURIUM; Strain/Indicator: TA100; Metabolic Activation: RAT, LIVER, S-9, AROCLOR 1254; Method: FLUCTUATION TEST
The source made the active and inactive calls. No rule for the calls is given here.
Outcome codes: label 1 = active, label 0 = inactive

>>> assigned_class("N#CC(Br)Br")
"label 0"
>>> assigned_class("ClC(Cl)Br")
"label 0"
>>> assigned_class("O=C(O)C(Cl)(Cl)Cl")
"label 1"
>>> assigned_class("ClC(Cl)Cl")
"label 0"

* * *

System: CCRIS mutagenicity, Ames/micronucleus/aberration tests
Assay: CCRIS mutagenicity studies
Conditions: Test System: AMES SALMONELLA TYPHIMURIUM; Strain/Indicator: TA104; Metabolic Activation: NONE; Method: STANDARD PLATE
The source made the active and inactive calls. The rule behind the calls is not given here.
Outcome codes: active, inactive

>>> assigned_class("ClC(Cl)Br")
"inactive"
>>> assigned_class("[O]=[Cr](=[O])([OH])[O][Cr](=[O])(=[O])[OH]")
"active"
>>> assigned_class("CCN(CC)Cc1cc(Nc2ccnc3cc(Cl)ccc23)ccc1O")
"inactive"
>>> assigned_class("CC\\C=C/C=C\\C=C/C=C\\C=C/OCC(O)CO (centres undefined)")
"active"

* * *

Tested on: CCRIS mutagenicity, Ames/micronucleus/aberration tests
Assay: CCRIS mutagenicity studies
Conditions: Test System: AMES SALMONELLA TYPHIMURIUM; Strain/Indicator: TA1538; Metabolic Activation: RAT, LIVER, S-9; Method: STANDARD PLATE
Activity calls are given as the source filed them. How the calls were made is not given here.
Outcome codes: T = active, F = inactive

>>> assigned_class("[O]=[Cr](=[O])([OH])[O][Cr](=[O])(=[O])[OH]")
"F"
>>> assigned_class("Cc1ncc2c(n1)CCC2")
"F"
>>> assigned_class("Nc1cccc2c(N)cccc12")
"F"
>>> assigned_class("CN(C)c1ccc(C(=O)c2ccc(N(C)C)cc2)cc1")
"F"
>>> assigned_class("COc1ccc(N)cc1")
"F"
>>> assigned_class("Nc1ccc(Cl)c(N)c1")
"T"

* * *

System: CCRIS mutagenicity, Ames/micronucleus/aberration tests
Assay: CCRIS mutagenicity studies
Details: Test System: AMES SALMONELLA TYPHIMURIUM; Strain/Indicator: TA100; Metabolic Activation: NONE; Method: STANDARD PLATE
The source made the active and inactive calls. How the calls were made is not given here.
Outcome codes: yes (1) = active, no (0) = inactive

>>> assigned_class("ClCc1ccc2c(c1)-c1cccc3cccc-2c13")
"yes (1)"
>>> assigned_class("CC(C)=CCCC(C)CC=O (stereo unspecified)")
"no (0)"
>>> assigned_class("CC(C)(C)c1ccc(C(=O)ON(OCc2ccccc2)C(=O)c2ccccc2)cc1")
"yes (1)"
>>> assigned_class("CCCCOc1ccc(N=O)cc1")
"yes (1)"
>>> assigned_class("O=S(=O)(Nc1ccc(Cl)c(Cl)c1)c1cccc2cccnc12")
"no (0)"
>>> assigned_class("Nc1ncn([C@@H]2O[C@H](CO)[C@@H](O)[C@@H]2O)c(=O)n1")
"no (0)"
>>> assigned_class("BrCc1c2ccccc2cc2ccccc12")
"yes (1)"
>>> assigned_class("CC(C)(C)S(=O)(=O)C[C@@H](Cc1ccccc1)C(=O)N[C@@H](Cc1cnc[nH]1)C(=O)N[C@@H](CC1CCCCC1)[C@@H](O)[C@@H](O)C1CC1")
"no (0)"
>>> assigned_class("C1CCC(C2(C3CCCCC3)COCCOCCOCCOCCOCCOCCO2)CC1")
"no (0)"
>>> assigned_class("Cc1ncc(CNC(=O)N(CCCl)N=O)c(N)n1")
"yes (1)"
>>> assigned_class("O=C(/C=C/c1ccccc1)c1ccccc1")
"no (0)"

* * *

System: CCRIS mutagenicity, Ames/micronucleus/aberration tests
Assay: CCRIS mutagenicity studies
Details: Test System: AMES SALMONELLA TYPHIMURIUM; Strain/Indicator: TA98; Metabolic Activation: NONE; Method: PREINCUBATION
Calls of active or inactive are those of the source. The rule behind the calls is not given here.
Outcome codes: active, inactive

>>> assigned_class("O=NN1C(C(=O)O)CSC1C(O)C(O)C(O)C(O)CO (stereo not given)")
"inactive"
>>> assigned_class("CC(C)(S)C(=O)N[C@@H](CS)C(=O)O")
"inactive"
>>> assigned_class("Nc1ccc(N)c2ccccc12")
"inactive"
>>> assigned_class("O=C1NC(=O)C(c2ccccc2)(c2ccccc2)N1")
"inactive"
>>> assigned_class("COc1ccc(N=[N+]([O-])c2ccc(OC)cc2)cc1")
"inactive"
>>> assigned_class("NC(=O)N/N=C/c1ccc([N+](=O)[O-])o1")
"active"
>>> assigned_class("NCC(=O)O")
"inactive"
>>> assigned_class("Clc1cccc2ccccc12")
"inactive"
>>> assigned_class("CCCCCCCCCCCCCCCCCC(=O)NCCNC(=O)CCCCCCCCCCCCCCCCC")
"inactive"
>>> assigned_class("Cc1ccc(S(=O)(=O)O)cc1C")
"inactive"
>>> assigned_class("CCN(CC)c1ccc2c(-c3ccccc3C(=O)O)c3ccc(=[N+](CC)CC)cc-3oc2c1")
"inactive"
>>> assigned_class("CCCCN(CC(O)c1ccc(O)cc1)N=O (stereo not given)")
"inactive"
>>> assigned_class("CC(C)(C)S(=O)(=O)C[C@@H](Cc1ccccc1)C(=O)N[C@@H](Cc1cnc[nH]1)C(=O)N[C@@H](CC1CCCCC1)[C@@H](O)[C@@H](O)C1CC1")
"inactive"
>>> assigned_class("Cc1cc(N)c(S(=O)(=O)O)cc1Cl")
"inactive"
>>> assigned_class("Nc1cccc2cccc(S(=O)(=O)O)c12")
"inactive"
>>> assigned_class("Cn1cnc2c3cccnc3ccc21")
"active"
>>> assigned_class("COC1=C(OC)C(=O)C(C/C=C(\\C)CC/C=C(\\C)CC/C=C(\\C)CC/C=C(\\C)CC/C=C(\\C)CC/C=C(\\C)CC/C=C(\\C)CC/C=C(\\C)CC/C=C(\\C)CCC=C(C)C)=C(C)C1=O")
"inactive"
>>> assigned_class("NCCNC(=O)c1ccc(Cl)cn1")
"inactive"
>>> assigned_class("C[C@H](CCC(=O)O)[C@H]1CC[C@H]2[C@@H]3CC[C@@H]4C[C@H](O)CC[C@]4(C)[C@H]3C[C@@H](O)[C@]12C")
"inactive"
>>> assigned_class("C[C-](C)[N+](=O)[O-]")
"active"
>>> assigned_class("O=[N+]([O-])c1ccc(OCC2CO2)cc1 (stereo not given)")
"inactive"
>>> assigned_class("Oc1ccc(Cl)c(Cl)c1Cl")
"inactive"
>>> assigned_class("CCCCC(CC)COCC1CO1 (stereo not given)")
"inactive"
>>> assigned_class("C[Si](C)(Cl)Cl")
"inactive"
>>> assigned_class("CN(C)c1ccc(-c2ccc(N(C)C)cc2)cc1")
"inactive"
>>> assigned_class("COc1ccc2c(c1O)C(=O)c1ccccc1C2=O")
"inactive"
>>> assigned_class("S=[Se]")
"inactive"
>>> assigned_class("COC(=O)c1oc(N(OC(C)=O)C(C)=O)c(-c2ccccc2)c1-c1ccccc1")
"inactive"
>>> assigned_class("CCOC(=O)CBr")
"inactive"
>>> assigned_class("Cc1ccccc1OP(=O)(Oc1ccccc1)Oc1ccccc1")
"inactive"
>>> assigned_class("CN1CCC[C@H]1c1cccnc1")
"inactive"
>>> assigned_class("Cc1ccc2cc3c(ccc4ccccc43)c3c2c1CC3OS(=O)(=O)O (stereo not given)")
"active"
>>> assigned_class("O=[N+]([O-])c1ccc(-c2ccccc2)cc1")
"active"
>>> assigned_class("N[C@@H](CS/C=C/CCl)C(=O)O")
"inactive"
>>> assigned_class("Brc1ccccc1")
"inactive"
>>> assigned_class("COC[CH2][Hg][Cl]")
"inactive"
>>> assigned_class("C=CC(=O)OC")
"inactive"
>>> assigned_class("C#C[C@]1(OC(=O)CCCCCC)CC[C@H]2[C@@H]3CCC4=CC(=O)CC[C@@H]4[C@H]3CC[C@@]21C")
"inactive"
>>> assigned_class("COC(=O)C1=C(C)NC(COC(N)=O)=C(C(=O)OC(C)C)C1c1cccc(Cl)c1Cl (stereo not given)")
"inactive"
>>> assigned_class("ClCc1ccccc1")
"inactive"
>>> assigned_class("ClCBr")
"active"
>>> assigned_class("COc1ccc(N)cc1")
"inactive"
>>> assigned_class("COc1cccc([N+](=O)[O-])c1")
"inactive"
>>> assigned_class("O=C(O)C(Cl)(Cl)Cl")
"inactive"
>>> assigned_class("CC(=O)C(C)O (stereo not given)")
"inactive"
>>> assigned_class("N#CC(O)c1ccccc1 (stereo not given)")
"inactive"
>>> assigned_class("NCCNCCO")
"inactive"
>>> assigned_class("CCCCCCCCCCC1CO1 (stereo not given)")
"inactive"
>>> assigned_class("CCCCCCCC(=O)CCc1ccc(O)c(OC)c1")
"inactive"
>>> assigned_class("Oc1cc(Cl)cc(Cl)c1")
"inactive"
>>> assigned_class("CCOP(=O)(NC(C)C)Oc1ccc(SC)c(C)c1 (stereo not given)")
"inactive"
>>> assigned_class("c1ccc(Cn2ccnc2)cc1")
"inactive"
>>> assigned_class("CC(=O)Nc1ccc(S(=O)(=O)Nc2ccccn2)cc1")
"inactive"
>>> assigned_class("ClCCCl")
"inactive"
>>> assigned_class("O=C1c2c(O)ccc([N+](=O)[O-])c2C(=O)c2c([N+](=O)[O-])ccc(O)c21")
"active"
